tested on: PPARg:RXRa DBDmut IVT, anti-RXR (DBD mutation: RXRa K156A/R161A, NR concentration 270 nM, RXRa partner concentration 90 nM); assay: PBM binding z-score (relative to random genomic background probes); higher = stronger binding; sequences stand for … in GC…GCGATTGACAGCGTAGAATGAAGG
# PBM binding z-score per entry
Form: value (number only, do not type unit).

Take a look at these entries with their results.
1. CCTACTGGGCCAAAGGTCGTTGATTCCAATGCTC; 5.47
2. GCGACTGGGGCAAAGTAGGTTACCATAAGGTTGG; 5.3
3. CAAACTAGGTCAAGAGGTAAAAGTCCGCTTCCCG; 8.5

Answer with reported PBM binding z-score of CCGAGTAGGTTATGGGGCATTCGGGCAACGGTGA
2.83

Using the record for TCTGCTAGGTGAACGATGGTCAGCTAATCTGCTA , state its measured PBM binding z-score.
3.12

Indicate its recorded PBM binding z-score; the sequence in question is ACTGGTTGGTCAGCTGAGGTCACACACAATTCGG
0.671

----------
system: PPARg DBDmut IVT, anti-PPARg (DBD mutation: PPARg1 K132A/R137A, NR concentration 270 nM); experiment: PBM binding z-score (relative to random genomic background probes); higher = stronger binding; sequences stand for … in GC…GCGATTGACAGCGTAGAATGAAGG
quantity: PBM binding z-score

1. ATCTCTAGGTAAAAGTTCAGAGAATCCCGAGGAT; 1.3
2. ACTATTCGTTGACTTAGGGCAACCGATACGACGC; 1.54
3. CCTATTTGGTCAAGGTCACACACGCTATAGGTAC; 1.25
4. GCTTATAGGTAATACAAGGTGAAAGTCCGATTGT; 1.03
5. ATATGTAGGTTAGCTGTGGTCATTCAGACTAGGC; 2.03

Turning now to a further sequence:
Write down PBM binding z-score measured for item TCTCGGAGGACACGAAGGTCAGAGATTTCCAGAG
-0.972

----------
tested on: LXRb homodimer (NR concentration 270 nM); assay: PBM binding z-score (relative to random genomic background probes); higher = stronger binding; sequences stand for … in GC…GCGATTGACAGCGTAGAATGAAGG
Measured PBM binding z-score of individual entries
No unit in the answer, only the number.

1) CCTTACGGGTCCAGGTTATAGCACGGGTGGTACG; -1.29
2) TATATAGGGTCAAAGGCCAGAGTACGAATGTCGA; 2.01
3) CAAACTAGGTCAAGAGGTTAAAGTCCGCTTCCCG; 0.567
4) CGTCTAAGGTCAATGCTAGGTCAGTGAAAGCATT; 1.34
5) ATCGAAAGGTCTTGAGGTGAGTATACAGAAAGGC; -0.0662

Field: next sequence
Give the value of PBM binding z-score reported for the following: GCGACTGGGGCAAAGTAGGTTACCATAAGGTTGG
-0.493

----------
Listed here: items and their measured PBM binding z-score.
system: PPARg homodimer (NR concentration 180 nM); assay: PBM binding z-score (relative to random genomic background probes); higher = stronger binding; sequences stand for … in GC…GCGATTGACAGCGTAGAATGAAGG
The answer should be a number; do not append a unit.

1) GCTCGGAGGACGAGGTCAGAGCTTTGTCCGTAGA; 0.162
2) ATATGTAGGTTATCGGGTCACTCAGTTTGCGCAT; 3.69
3) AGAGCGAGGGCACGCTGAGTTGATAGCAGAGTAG; 0.251
4) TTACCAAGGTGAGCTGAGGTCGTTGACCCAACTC; 0.266
5) ACAGACAGGTGAATGAAGGTAACTCAGCTGGACG; -0.217

Look up and report PBM binding z-score, with PPARg homodimer (NR concentration 180 nM) as system, for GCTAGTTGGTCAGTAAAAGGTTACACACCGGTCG
1.27

Please respond with reported PBM binding z-score (system PPARg homodimer (NR concentration 180 nM)) for CCTACTGGGCCATTCAGACGTCATTGATCATATG .
-0.0853

Specify PBM binding z-score for TCTTGTAGATCAACAGGCGGTTAAGAAAGATCGA , system PPARg homodimer (NR concentration 180 nM).
-0.291

Please report PBM binding z-score with PPARg homodimer (NR concentration 180 nM) for item GATACAGGGTCAGCTAGAGTCCAGAGTATGGAAA .
1.83

Please indicate recorded PBM binding z-score of CCTAGTTGGTCAGGAGGTCAGACACCGGATATGA measured with PPARg homodimer (NR concentration 180 nM).
2.85

# return PBM binding z-score for CGTCCAAGGTCCAAGGTCAGTGAAGAGATGACGG , test system: PPARg homodimer (NR concentration 180 nM)
1.34

Look up and report PBM binding z-score, with PPARg homodimer (NR concentration 180 nM) as system, for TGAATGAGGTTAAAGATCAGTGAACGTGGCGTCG
1.24
